assayed.target: human recombinant PDE9 protein (Homo sapiens, UniProt O76083)
Construct: His-tag (inferred from the Ni column purification; a myc His-tag vector is named only for the HEK293 expression check); made in house; host or cells: silkworm (pYNG vector, Katakura Industries)
Sequence (O76083 whole entry): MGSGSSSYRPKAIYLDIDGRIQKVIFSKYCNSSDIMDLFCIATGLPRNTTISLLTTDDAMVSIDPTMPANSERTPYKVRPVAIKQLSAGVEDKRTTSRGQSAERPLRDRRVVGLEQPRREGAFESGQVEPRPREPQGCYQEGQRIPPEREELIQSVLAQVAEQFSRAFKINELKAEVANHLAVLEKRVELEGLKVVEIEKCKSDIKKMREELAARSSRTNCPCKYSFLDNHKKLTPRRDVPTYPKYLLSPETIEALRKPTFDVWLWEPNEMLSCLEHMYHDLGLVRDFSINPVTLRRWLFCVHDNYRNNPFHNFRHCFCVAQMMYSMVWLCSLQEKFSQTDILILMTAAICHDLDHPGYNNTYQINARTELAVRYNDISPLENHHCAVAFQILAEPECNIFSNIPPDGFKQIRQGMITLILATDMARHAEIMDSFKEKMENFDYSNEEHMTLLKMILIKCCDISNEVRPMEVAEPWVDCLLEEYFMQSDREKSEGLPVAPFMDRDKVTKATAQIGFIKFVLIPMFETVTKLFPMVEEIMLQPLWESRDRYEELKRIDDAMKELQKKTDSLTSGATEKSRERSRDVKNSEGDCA
test.summary: PDE9 inhibitory activity test (measurement of PDE9 inhibitory action, [3H]-cGMP)
Format: biochemical
condition.description: PDE9 IC50, human recombinant PDE9, 30° C., 10 min
parameter: IC50 (nM)

# example entries with known answers
compound | numeric.result
COc1nc(C)cc(C)c1-c1cc2[nH]c(=O)c3cnn(C4CCOCC4)c3c2cc1F | 4.77
Cc1cccc(C)c1-c1ccc2c(c1)[nH]c(=O)c1cnn(C3CCOCC3)c12 | 24.3
COc1cc(C)c(-c2ccc3c(c2)[nH]c(=O)c2cnn(C4CCOCC4)c23)c(C)n1 | 14
COc1nc(CF)cc(C)c1-c1ccc2c(c1)[nH]c(=O)c1cnn(C3CCCOC3)c12 (single isomer, unassigned) [35 (−)] | 2.96
COc1nccc(C)c1-c1ccc2c(c1)[nH]c(=O)c1cnn(C3CCCOC3)c12 (single isomer, unassigned) [39 (−)] | 4.08

A. Cc1cnc(OC(C)C)c(C)c1-c1ccc2c(c1)[nH]c(=O)c1cnn([C@H]3CCOC3)c12
B. COc1nc(CF)cc(C)c1-c1ccc2c(c1)[nH]c(=O)c1cnn(C3CCOC3)c12 (single isomer, unassigned) [31 (+)]
Q. Between A and B , which one shows the larger IC50 value? // caller expects the label of the chosen entry
A. B
(B: 20.1 nM, A: 8.35 nM)

P. COc1nccc(C)c1-c1ccc2c(c1)[nH]c(=O)c1cnn(C3CCOCC3)c12
Q. COc1nc(C)cc(C)c1-c1ccc2c(c1)[nH]c(=O)c1cnn(C3CCOC3)c12 (single isomer, unassigned) [28 (+)]
Q. Between P and Q , which one shows the larger IC50 value? // caller expects the label of the chosen entry
A. Q

###

assayed.target: human recombinant PDE9 protein (Homo sapiens)
Construct: His-tag (inferred from the Ni column purification; a myc His-tag vector is named only for the HEK293 expression check)
test.summary: PDE9 inhibitory activity test (measurement of PDE9 inhibitory action, [3H]-cGMP)
condition.description: PDE9 IC50, human recombinant PDE9, 30° C., 10 min
parameter: IC50 (nM)

# example entries with known answers
compound | IC50 / nM
Cc1cc(C)c(-c2ccc3c(c2)[nH]c(=O)c2cnn(C4CCOCC4)c23)c(C(F)F)n1 [Example 21] | 53.9
COc1ncc(C)c(-c2ccc3c(c2)[nH]c(=O)c2cnn(C4CCCOC4)c23)c1C (single isomer, unassigned) [36 (−)] | 8.1

I. COc1cc(CF)c(-c2ccc3c(c2)[nH]c(=O)c2cnn(C4CCOCC4)c23)c(C)n1 [Example 22]
II. COc1nc(CF)cc(C)c1-c1ccc2c(c1)[nH]c(=O)c1cnn(C3CCCOC3)c12 (single isomer, unassigned) [35 (+)]
Q. Between I and II , which one shows the larger IC50 value? // caller expects the label of the chosen entry
A. I
(I: 52.3 nM, II: 2.62 nM)

###

assayed.target: human recombinant PDE9 protein (Homo sapiens, UniProt O76083)
Construct: His-tag (inferred from the Ni column purification; a myc His-tag vector is named only for the HEK293 expression check)
test.summary: PDE9 inhibitory activity test (measurement of PDE9 inhibitory action, [3H]-cGMP)
condition.description: PDE9 IC50, human recombinant PDE9, 30° C., 10 min
pIC50: −log10 of the molar value.
parameter: pIC50

# example entries with known answers
compound | pIC50
COc1nccc(C)c1-c1ccc2c(c1)[nH]c(=O)c1cnn(C3CCOC3)c12 (single isomer, unassigned) [32 (−)] | 7.91
COc1ncc(C)c(-c2ccc3c(c2)[nH]c(=O)c2cnn([C@H]4CCOC4)c23)c1C [25 (−)S] | 8.03
COc1nc(C)cc(C)c1-c1ccc2c(c1)[nH]c(=O)c1cnn(C3CCOCC3)c12 | 8.36
COc1ncc(Cl)c(C)c1-c1ccc2c(c1)[nH]c(=O)c1cnn(C3CCOCC3)c12 | 7.68
COc1cc(C)c(-c2ccc3c(c2)[nH]c(=O)c2cnn(C4CCOC4)c23)c(C)n1 (single isomer, unassigned; (-)) [29 (−)] | 7.51

I. CCOc1ncc(C)c(-c2ccc3c(c2)[nH]c(=O)c2cnn([C@H]4CCOC4)c23)c1C
II. COc1cc(C)c(-c2ccc3c(c2)[nH]c(=O)c2cnn(C4CCOCC4)c23)c(CF)n1
Q. Between I and II , which one shows the larger pIC50 value? // caller expects the label of the chosen entry
A. I

###

assayed.target: human recombinant PDE9 protein (Homo sapiens, UniProt O76083)
Construct: His-tag (inferred from the Ni column purification; a myc His-tag vector is named only for the HEK293 expression check)
test.summary: PDE9 inhibitory activity test (measurement of PDE9 inhibitory action, [3H]-cGMP)
condition.description: PDE9 IC50, human recombinant PDE9, 30° C., 10 min
parameter: IC50 (nM)

compound | unit.descriptor | IC50
COc1ncc(F)c(C)c1-c1ccc2c(c1)[nH]c(=O)c1cnn(C3CCOCC3)c12 [Example 12] | nM | 19.7

P. Cc1cc(CF)nc(C)c1-c1ccc2c(c1)[nH]c(=O)c1cnn(C3CCOCC3)c12 [Example 19]
Q. COc1nc(C)cc(C)c1-c1ccc2c(c1)[nH]c(=O)c1cnn([C@@H]3COC[C@H]3OC)c12 (racemic) [Example 60]
R. COc1nccc(C)c1-c1ccc2c(c1)[nH]c(=O)c1cnn(C3CCCOC3)c12 (single isomer, unassigned) [39 (+)]
Q. Please produce an ascending ranking of these compounds based on IC50. In your reply, arrange the labels in the requested order.
A. R, P, Q

I. COc1ncc(C)c(-c2cc3[nH]c(=O)c4cnn([C@H]5CCOC5)c4c3cc2F)c1C [Example 53]
II. Cc1cc(C)c(-c2ccc3c(c2)[nH]c(=O)c2cnn(C4CCOCC4)c23)c(CF)n1 [Example 20]
III. Cc1cc(OC(C)C)nc(C)c1-c1ccc2c(c1)[nH]c(=O)c1cnn([C@H]3CCOC3)c12 [Example 51]
IV. COc1cc(C)c(-c2cc3[nH]c(=O)c4cnn([C@@H]5CCOC5)c4c3cc2F)c(C)n1 [Example 59]
Q. Rank entries according to their IC50, from the largest number down. In your reply, arrange the labels in the requested order.
A. IV, II, I, III

###

assayed.target: human recombinant PDE9 protein (Homo sapiens)
Construct: His-tag (inferred from the Ni column purification; a myc His-tag vector is named only for the HEK293 expression check)
test.summary: PDE9 inhibitory activity test (measurement of PDE9 inhibitory action, [3H]-cGMP)
condition.description: PDE9 IC50, human recombinant PDE9, 30° C., 10 min
pIC50: −log10 of the molar value.
parameter: pIC50

# example entries with known answers
compound | parameter | numeric.result
COc1cc(C)c(-c2ccc3c(c2)[nH]c(=O)c2cnn(C4COCCOC4)c23)c(C)c1 | pIC50 | 7.92
COc1ncc(C)c(-c2ccc3c(c2)[nH]c(=O)c2cnn(C4CCCOC4)c23)c1C (single isomer, unassigned) [36 (+)] | pIC50 | 8.05
COc1cc(C)c(-c2ccc3c(c2)[nH]c(=O)c2cnn(C4CCCOC4)c23)c(CF)n1 (single isomer, unassigned) [38 (+)] | pIC50 | 7.77
COc1cc(C)c(-c2ccc3c(c2)[nH]c(=O)c2cnn(C4CCOC4)c23)c(C)n1 (single isomer, unassigned) [29 (+)] | pIC50 | 6.86

a. Cc1cc(C#N)nc(C)c1-c1ccc2c(c1)[nH]c(=O)c1cnn(C3CCOCC3)c12
b. COc1cc(C)c(-c2ccc3c(c2)[nH]c(=O)c2cnn(C4CCCOC4)c23)c(C)n1 (single isomer, unassigned) [37 (+)]
Q. Between a and b , which one shows the larger pIC50 value? // caller expects the label of the chosen entry
A. b
(b: 7.96, a: 7.44)

P. COc1ncc(C)c(-c2ccc3c(c2)[nH]c(=O)c2cnn(C4CCCOCC4)c23)c1C (single isomer, unassigned; (-)) [41 (−)]
Q. COc1nc(C)cc(C)c1-c1ccc2c(c1)[nH]c(=O)c1cnn(C3CCCOC3)c12 (single isomer, unassigned; (+)) [34 (+)]
R. COc1ncc(C)c(-c2cc3[nH]c(=O)c4cnn([C@@H]5CCOC5)c4c3cc2F)c1C
Q. Rank entries according to their pIC50, from the largest number down. In your reply, arrange the labels in the requested order.
A. Q, P, R
(Q: 8.41, P: 7.92, R: 7.36)

A. Cc1cc(OC(F)F)nc(C)c1-c1ccc2c(c1)[nH]c(=O)c1cnn(C3CCOCC3)c12
B. COc1ncc(C)c(-c2ccc3c(c2)[nH]c(=O)c2cnn(C4CCCOCC4)c23)c1C (single isomer, unassigned; (+)) [41 (+)]
C. Cc1cccc(C)c1-c1ccc2c(c1)[nH]c(=O)c1cnn(C3CCOC3)c12 (single isomer, unassigned; (+)) [33 (+)]
Q. Rank entries according to their pIC50, from the largest number down. In your reply, arrange the labels in the requested order.
A. B, A, C
(B: 8.23, A: 8.03, C: 6.95)
